// data source = the Human Domainome abundance scans (Beltran et al. 2025)

B1: Myocardin, residues 363 to 406; numbered along this chain, Q8IZQ8 (parent)
chain: KPGPLPPNLDDLKVSELRQQLRIRGLPVSGTKTALMDRLRPFQD

Variants of: B1
Assay: abundance fitness (aPCA) (normalised: wild type 0, dead -1); higher = more abundant; growth selection in yeast, the domain comes from the species named
Conditions: Homo sapiens
reported_metric: abundance fitness

According to the records, this variant `Q20F` displays abundance fitness of -0.093

According to the records, this variant `L12R` displays abundance fitness of -0.394
